# Tested on: human Factor 7 mRNA
# assayNotes: Dose-dependent antisense inhibition of human Factor 7 in HepB3 cells, transfection with electroporation
# Type: cell-based
# experimentalConditions: 25 μM, 16 hours (Example 7, Table 15)
In the oligonucleotide strings, read from the 5' end, every base follows the letter of its sugar. An asterisk marks phosphorothioate; unmarked linkages are phosphodiester. Other units and linkages are bracketed, terminal groups are in braces. A string of capitals states the bases alone. e = 2'-O-(2-methoxyethyl) (MOE); [5mC] = 5-methylcytosine; d = 2'-deoxy (DNA)
assayReadout: percent inhibition of Factor 7 mRNA, relative to untreated control cells (%)
One number for each entry, in %.

| substance | measuredOn | scaleUnit | reading |
| --- | --- | --- | --- |
| 422228 (antisense eT*eG*d[5mC]*dA*dT*dG*dG*dT*dG*dA*dT*dG*d[5mC]*dT*dT*e[5mC]*eT*eG*eA*eA) [compound 422228] | human Factor 7 mRNA | % | 47 |

// each substance listed below needs its percent inhibition of Factor 7 mRNA, relative to untreated control cells
1. 422292 (antisense eG*eT*dT*d[5mC]*dT*dG*d[5mC]*dA*dG*dG*dA*dG*d[5mC]*dG*dG*e[5mC]*e[5mC]*eT*eA*eA) [compound 422292]
2. 422140 (antisense eG*eT*eT*e[5mC]*eT*dG*d[5mC]*dA*dG*dG*dA*dG*d[5mC]*dG*dG*e[5mC]*e[5mC]*eT*eA*eA) [compound 422140]

Response:
[59, 64]

* * *

Consider the following substances; for each one, report its percent inhibition of Factor 7 mRNA, relative to untreated control cells.
# Tested on: human Factor 7 mRNA
# assayNotes: Dose-dependent antisense inhibition of human Factor 7 in HepB3 cells, transfection with lipofectin
# Assay type: cell-based
# experimentalConditions: 12.5 nM, lipofectin, HepB3 cells, 16 hours
In the oligonucleotide strings, read from the 5' end, every base follows the letter of its sugar. An asterisk marks phosphorothioate; unmarked linkages are phosphodiester. Other units and linkages are bracketed, terminal groups are in braces. A string of capitals states the bases alone. e = 2'-O-(2-methoxyethyl) (MOE); [5mC] = 5-methylcytosine; d = 2'-deoxy (DNA)
One number for each entry, in %.

Solved cases below.
| substance | scaleUnit | reading |
| --- | --- | --- |
| 422087 (antisense e[5mC]*eA*eT*eG*e[5mC]*dA*dT*dG*dG*dT*dG*dA*dT*dG*d[5mC]*eT*eT*e[5mC]*eT*eG) [compound 422087] | % | 51 |
| 422142 (antisense eG*eA*eG*eT*eT*d[5mC]*dT*dG*d[5mC]*dA*dG*dG*dA*dG*d[5mC]*eG*eG*e[5mC]*e[5mC]*eT) [compound 422142] | % | 51 |

Query: Provide percent inhibition of Factor 7 mRNA, relative to untreated control cells value for the following substance: 422140 (antisense eG*eT*eT*e[5mC]*eT*dG*d[5mC]*dA*dG*dG*dA*dG*d[5mC]*dG*dG*e[5mC]*e[5mC]*eT*eA*eA) [compound 422140]
Response: 49
